# Test system: HOP-92 NSCLC
# experimental-details: NCI-60 one-dose screen, 48 h (100 = growth as untreated, 0 = no growth, -100 = all killed)
# study-conditions: 10 µM unless noted
The panel holds about 83,000 compounds, 20% with a hit somewhere; the sample as a whole holds those more often.
quantity-measured: growth (%)
# unit: % | format: bare number

COc1ccc(/C=C\c2cc(OC)c(OC)c(OC)c2)cc1OCC(=O)Nc1ccc2nc(C)sc2c1 :: 52
Fc1ccc(CNc2cccc3[nH]c(C(F)(F)F)nc23)cc1 :: -9.4
C[n+]1ccccc1/C=C/c1ccc2cccc(O)c2n1 :: 106
OC(c1cc2cc(Cl)c(Cl)cc2c2cc(C(F)(F)F)ccc12)C1CCCCN1 (configuration not stated) :: -70.9
COc1cc2c(cc1O)CC[C@@H]1[C@@H]2CC[C@]2(C)[C@@H](OCCN(C)C)CC[C@@H]12 :: 48.6
O=C(CN(C(=O)Cn1c(=O)n2nnnc2c2ccccc21)c1ccccc1C(F)(F)F)Nc1ccc(C(F)(F)F)cc1 :: 92.8
COc1ccc(CCNc2nc(SC)nc(-c3cccc([N+](=O)[O-])c3)c2C#N)cc1OC :: 75.8
Cc1cc(N2CCN(C)CC2)nc(NC2CCCC(Nc3ccnc4cc(Cl)ccc34)C2)n1 (configuration not stated) :: -69.9
CC1CCNC(C)C1 (configuration not stated) :: 76.3
CCOC(=O)c1sc(Nc2ccc(Cl)cc2)nc1C :: -20.9

Let us move to another entry and its growth.
Recorded growth (molecule COc1cc(/C=C/C(=O)c2ccc(O)c(CN3CCN(c4cc5c(cc4F)c(=O)c(C(=O)O)cn5C4CC4)CC3)c2)cc(OC)c1OC ): 81.2
